All values here come from patent US20050245543A1.

- testTarget: rat histamine H3 receptors (Rattus norvegicus)
- Sequence (Q9QYN8 whole entry): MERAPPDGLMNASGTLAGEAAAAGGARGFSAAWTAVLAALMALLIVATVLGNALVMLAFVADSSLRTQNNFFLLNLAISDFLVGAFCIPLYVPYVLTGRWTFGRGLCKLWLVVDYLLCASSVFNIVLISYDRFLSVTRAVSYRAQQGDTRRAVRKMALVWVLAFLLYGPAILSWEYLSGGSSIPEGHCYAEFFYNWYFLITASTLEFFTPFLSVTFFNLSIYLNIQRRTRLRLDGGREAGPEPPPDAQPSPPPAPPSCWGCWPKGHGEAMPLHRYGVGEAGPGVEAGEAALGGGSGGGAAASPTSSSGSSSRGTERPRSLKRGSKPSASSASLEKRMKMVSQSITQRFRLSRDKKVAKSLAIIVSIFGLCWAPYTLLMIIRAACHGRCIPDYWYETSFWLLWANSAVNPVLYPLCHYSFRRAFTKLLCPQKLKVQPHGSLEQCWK
assayEndpoint: Ki (nM)
Answer format: numeric, nM implied, no suffix.

What measured Ki is associated with CC(c1ccc(-c2ccc(-c3cncnc3)cc2)cc1)N1CCCC1 (stereo not shown) [Example 20] on rat histamine H3 receptors (Rattus norvegicus)? 25.2

Kindly state the measured Ki obtained for CC(c1ccc(-c2ccc(-c3cncnc3)cc2)cc1)N1CCCC1 (racemic) [Example 7] with rat histamine H3 receptors (Rattus norvegicus). 22.7

Return Ki measured with rat histamine H3 receptors (Rattus norvegicus) given this compound: "C[C@@H](c1ccc(-c2ccc(C3CCNCC3)cc2)cc1)N1CCCC1" 72.6

Hello, I am looking for reported Ki with rat histamine H3 receptors (Rattus norvegicus) for "CCN1CCC(c2ccc(-c3ccc([C@@H](C)N4CCCC4)cc3)cc2)CC1" . Could you help? 21.3

Give the reported Ki for "C[C@H](c1ccc(-c2ccc(C3CCN(C)CC3)cc2)cc1)N1CCCC1" (system: rat histamine H3 receptors (Rattus norvegicus)). 24.3

Lab request: please report Ki under test system rat histamine H3 receptors (Rattus norvegicus) for CC(c1ccc(-c2ccc(-c3cccnc3)cc2)cc1)N1CCCC1 (stereo not shown) 50

Record lookup: for rat histamine H3 receptors (Rattus norvegicus), what Ki belongs to "C[C@@H](c1ccc(-c2ccc(-c3ccncc3)cc2)cc1)N1CCCC1" ? 137

So what Ki did CC(c1ccc(-c2ccc(C3CCNCC3)cc2)cc1)N1CCCC1 (racemic) get with rat histamine H3 receptors (Rattus norvegicus)? 10

Missing value: Ki, rat histamine H3 receptors (Rattus norvegicus), entry "C[C@H](c1ccc(-c2ccc(-c3cccnc3)cc2)cc1)N1CCCC1" . Fill in? 35.8
